Measured z-score of subpopulation abundance, listed per entry for reference.
# Test system: Saccharomyces cerevisiae BY4741 SeMeCo community
# PROCEDURE_SUMMARY: z-score of subpopulation abundance vs DMSO median, subpopulation auxotrophic for U; higher = larger share of this subpopulation than in DMSO controls
# RECORDED_CONDITIONS: 10 µM; 24 h; SM minimal medium; subpopulation (auxotrophy): U
Where a name gives a salt, the structure may show the parent alone.

The following molecules have reported results that may help.
Cc1cc(C)nc(O)n1.O=C(Nc1ccc([N+](=O)[O-])cc1)Nc1ccc([N+](=O)[O-])cc1: 0.5
CC[C@H]1OC(=O)[C@H](C)[C@@H](O[C@H]2C[C@@](C)(OC)[C@@H](O)[C@H](C)O2)[C@H](C)[C@@H](O[C@@H]2O[C@H](C)C[C@H](N(C)C)[C@H]2O)[C@](C)(O)C[C@@H](C)CN(C)[C@H](C)[C@@H](O)[C@]1(C)O: -0.41
CC(C)(C)C1CCC(CC2=C(O)c3ccccc3C(=O)C2=O)CC1 (centres undefined): -0.95
Nc1nc(N)nc(-c2cc(Cl)ccc2Cl)n1: -1.06

query: What measured z-score of subpopulation abundance goes with COc1cc(O)c(C(=O)Nc2nc(C(=O)NCCN(C(C)C)C(C)C)cs2)cc1OC [Acotiamide hydrochloride] ?
result: 0.89

query: Entry Oc1c(I)cc(I)c2cccnc12 [Diiodohydroxyquinoline] : reported z-score of subpopulation abundance = ?
result: 2.25

query: Given the molecule CC1=C(C(=O)OC(C)C)C(c2cccc([N+](=O)[O-])c2)C(C(=O)OC2CN(C(c3ccccc3)c3ccccc3)C2)=C(N)N1 (centres undefined) , what is its reported z-score of subpopulation abundance?
result: 0.39
